List of pEC50 values.
tested on: Aorta; assay: Vasodilating activity in Sprague-Dawley rat aortic ring precontracted with phenylephrine in absence of endothelium; assay type: functional, tissue-based; conditions: Rattus norvegicus, Sprague-Dawley, Aorta
pEC50: −log10 of the molar value.
PARAMETER_MEASURED: pEC50

* CCC12CC3CC(N)(C1)CC(CO[N+](=O)[O-])(C3)C2 (stereo not drawn) | 4.30
* CC(CO[N+](=O)[O-])CC12CC3CC(N)(C1)CC(CC(C)CO[N+](=O)[O-])(C3)C2 (stereo not drawn) | 4.44
* CCCC12CC3CC(N)(C1)CC(O[N+](=O)[O-])(C3)C2 (stereo not drawn) | 4.02
* CCC12CC3CC(N)(C1)CC(O[N+](=O)[O-])(C3)C2 (stereo not drawn) | 3.83
* NC12CC3CC(CCO[N+](=O)[O-])(C1)CC(CCO[N+](=O)[O-])(C3)C2 | 4.24
* NC12CC3CC(CO[N+](=O)[O-])(C1)CC(CO[N+](=O)[O-])(C3)C2 | 4.20
* CCC12CC3CC(N)(C1)CC(CCCO[N+](=O)[O-])(C3)C2 (stereo not drawn) | 4.57
* NC12CC3CC(CCCO[N+](=O)[O-])(C1)CC(CCCO[N+](=O)[O-])(C3)C2 | 4.46

Where do these numbers come from? They come from ChEMBL document CHEMBL4261483.
